FYI, the data here is from the supplement of paper PMC12042874.

Assay: amyloid nucleation score (Sup35N fusion, yeast selection) (log enrichment); library NNK2; higher = more nucleation; inactive = no reads after selection;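 also: zero at mode of non-aggregating sequences after 7 days selection at 30°C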
Binary classification by amyloid nucleation score, with -0.5 as an inclusive lower bound for true; all other cases are false.

Ordered residues | Category
IWLLHQCSLATLGFC | false
DPKVVMLVMTDMLNFG | true
RQALVRILFSSSRIGGM | false
QDPFQIRLLVVLNFDNLYLW | true
FSSATDVCDGSRSIIRIAGA | true
TRGCFAVSSKYMLSYVGLNR | true

---

Experiment: amyloid nucleation score (Sup35N fusion, yeast selection) (log enrichment); library NNK1; higher = more nucleation; inactive = no reads after selection

Substance | amyloid nucleation score
YLCDSSLGVVYSFLHCRMVD | -0.369
RFIWFLVYVNTCYARC | 2.86
YVGADMELHSRMVTDTYFAS | -0.707
WIWVYQTNKIKEMFMRRVWL | inactive
WAHGLLFSYDSLHWYYICKV | 0.304
INYTTWHYASCFRFT | 2.82
LLCFLFTK | 3.32
SSGFSTMYIK | -0.892
FTDLFPEDRIWVPDYAGQRR | 0.255
RNYTVKKMNLC | inactive
IWLCVYNGM | 4.98
KSCAHSYEFHHCNCAVVFTL | 6.6
GWVGLLH | 0.457
LSWFPA | 0.179
FESKYNTP | 0.41
QGAGILTYPRALRHWVVRRM | 0.12
HRRSTHGMYPVPYCSSINH | 0.687
CEAFADTSSSYRDFYLQHQL | -1.44
VGLLKAAEDGVLRIGVRRSW | 0.631
INHLKGVSRYSVPVLLGFIA | 0.124
DMFVGKTRMRRGSVMLYFMG | 0.829
ISDCRFILMYSYGHLCAGVR | 0.513
TLCREEVETRLEATFCGCTN | 0.979
VKGVVYAGH | -1.44
EKNCRADATV | -1.96
NYVEVINNFHAFVRVLFEIL | 4.09
VDCLGFLEHICGLGDIIKTK | 0.341
WQSFGVSGRLPYRQWSD | inactive
NADMFRTVLMMMFPAFRLIR | 0.172
FLLCVSHLELSY | 0.968
DYVPYEKAHRARMYCPTHQG | 0.409
LCCRLMTTICPKLCSVLLMS | 0.217
ICIDCYQGC | -0.721
SYYNSVWTRYECAVVWT | 0.413
LFLKRGPSCTCLLRKSTIEH | 0.182
LDWAWFYCSRNKRFSTILFR | 0.138
WTTSVSL | -0.346

---

Test: amyloid nucleation score (Sup35N fusion, yeast selection) (log enrichment); library NNK3; higher = more nucleation; inactive = no reads after selection
Attribute measured: amyloid nucleation score

Substance | Attribute measured | Recorded result
NCIAWYQW | amyloid nucleation score | -0.393
TGSVFVKDGTLWPTCVDLIG | amyloid nucleation score | inactive
FYCGIWAYVEDCC | amyloid nucleation score | 2.53
LGTGSLNHST | amyloid nucleation score | inactive
CDVVSSDMVFDLS | amyloid nucleation score | inactive
TVLGELKVLFRYWFHIIWYF | amyloid nucleation score | inactive
VVMFSTPDIVDILSHVYRLG | amyloid nucleation score | inactive
AMVTVELSDNYFWNLHTVAS | amyloid nucleation score | inactive
ECLKPCSSNCTNRPTARPQC | amyloid nucleation score | inactive
LGYIQEN | amyloid nucleation score | inactive
SRCPRMGYQHALRRWLLPVW | amyloid nucleation score | inactive
TRLRSTPVLVVNW | amyloid nucleation score | inactive
EDIEMEMLLLGCNLEVLNAK | amyloid nucleation score | inactive
CMVCYLLPGSVSTCSCVRGI | amyloid nucleation score | 2.75
DWSPLAGRRMTSAVDGVSMD | amyloid nucleation score | inactive
HYSLNASIYSTCTRTSMNPV | amyloid nucleation score | -0.136
IYLECIYNCFYVYKIMLHRV | amyloid nucleation score | inactive
VKCQRRH | amyloid nucleation score | inactive
TCQILRYIRSLLRMLIWCYY | amyloid nucleation score | -0.418
NSIQEDV | amyloid nucleation score | inactive
CQIKNGLDNQKTDYNSSPF | amyloid nucleation score | inactive
SNCRCIEGVFYHTYNQKAVR | amyloid nucleation score | inactive
SMQVQMTWLCDRSSLGQRNQ | amyloid nucleation score | 1.6
VFAFGNIGLVRWFVI | amyloid nucleation score | inactive
YKIRFSLYVEHSVVLYVQY | amyloid nucleation score | inactive
FMVLRYCVILWGFWEYMSSA | amyloid nucleation score | inactive
HLVADWQCHSDGFKSWLGNW | amyloid nucleation score | inactive
SFMRCFNIVWYTSILLRYTW | amyloid nucleation score | inactive
VSFYIVKSLEEAGVSR | amyloid nucleation score | 1.36
LFDALYLEVTLGSSMVYVKN | amyloid nucleation score | inactive
SRTAKSFDATWMITFYGWGP | amyloid nucleation score | inactive
LFLKFDNSSWLMLKVMDTNI | amyloid nucleation score | 0.961
KDMMWDVSRPYFYLVTYQIG | amyloid nucleation score | inactive
QVLRSYHYGCYSGCGALHMR | amyloid nucleation score | inactive
YVRIWSFMNYAVMVSITLIV | amyloid nucleation score | inactive
HIFDNSYIFLDLLLARKY | amyloid nucleation score | 1.87

---

Assay: amyloid nucleation score (Sup35N fusion, yeast selection) (log enrichment); library NNK3; higher = more nucleation; inactive = no reads after selection
Attribute measured: amyloid nucleation score

Ordered residues | Attribute measured | Recorded result
IRMYSIWREDVSRRKARCMW | amyloid nucleation score | inactive
LFFYFLEPR | amyloid nucleation score | inactive
PVNGAVYTKGLTSWLRFIVV | amyloid nucleation score | -0.178
ARLHVILCDGCHVRMCPEMG | amyloid nucleation score | inactive
ISLVLVCYKASVITLWENQW | amyloid nucleation score | -0.627
YSKYSYSCVDGMIW | amyloid nucleation score | inactive
SIRTWRVPRDCSAYFNGLSW | amyloid nucleation score | inactive
SRILRYVTLSEYWFQPIGLD | amyloid nucleation score | inactive
WHSKWVWNHNWLGSINCRYE | amyloid nucleation score | inactive
FSDNSSRSGSNSEWYGS | amyloid nucleation score | inactive
FEEYAIYPVAKGSVKMDAAL | amyloid nucleation score | inactive
MTPFIKNS | amyloid nucleation score | inactive
DRELSFLPGYYLYARVRHKS | amyloid nucleation score | inactive
WPFHWSFSFVISMYMSWGNS | amyloid nucleation score | inactive
IAGKIEIIVVRCYSLVGPCT | amyloid nucleation score | 0.305
SGYLYFFLRSVDCRFLTSSL | amyloid nucleation score | inactive
ISQGFGCEFVFWFEEGKFFH | amyloid nucleation score | inactive
FRVYQNIDTERDSRTSPKES | amyloid nucleation score | inactive
SDYHWYVRTSCGSFSYGHVN | amyloid nucleation score | inactive
LMSTYVTFFRSCKPSSCVFV | amyloid nucleation score | inactive
SLVLNSMMRTTNKNGNEGYV | amyloid nucleation score | inactive
LWMFDYKPRLVCQKSV | amyloid nucleation score | inactive
QRMTNFLLGRVSV | amyloid nucleation score | inactive
YICTNNLTYNSMMQIFSKIM | amyloid nucleation score | 0.394
IVSMSCGWFRGYRVDDGYM | amyloid nucleation score | 1.38
SVYDNYSLGNRYWERTFWLS | amyloid nucleation score | inactive
DTFMDSMLYTGLSIPCKVLL | amyloid nucleation score | -0.116
YLNSDRSYEMDTFRFGYLLY | amyloid nucleation score | inactive
ESMISNGFWGLRARCSVINM | amyloid nucleation score | inactive
WIHSGSSHWLNACDRMDMTK | amyloid nucleation score | -0.753
FRYPYNPVIREFCTCSSWFL | amyloid nucleation score | 1.73
RFNMCGEYGKVHGLGW | amyloid nucleation score | inactive
HPRELYTFKKSWFLGRDS | amyloid nucleation score | inactive
RWFDTFLCLSR | amyloid nucleation score | inactive
PGDTQITYTGLSEFWCPGVA | amyloid nucleation score | inactive

---

Assay: amyloid nucleation score (Sup35N fusion, yeast selection) (log enrichment); library NNK1; higher = more nucleation; inactive = no reads after selection
Would you mind classing the entries by amyloid nucleation score? Ranges: A (below -0.4), B (-0.4 to below 1), C (1 or more)

Substance | Category
FVTANMTKLFTLWNWRLPGK | B
DARSNSVLYQRCSTSRGRSG | A
SHFFLIT | A
SLCFYGEQIFHN | C
GLDIFIWYMMVGIVYAFIYV | C
EKLRIVHQRRGRVHFNSGAI | A
MLVHYVAFVFNMSTRCNCSE | C
TRMLLMIL | A
AIGCVWVRNRVAIVGERVAK | C
NLECFTCFFLYTIDMNLKP | C
PISSGNCSTRLGSFSSWYSV | A
FCISLFSHWFALW | C
ACQGWGTWEELGHDERTDLV | B
DSRLGLMWMYEPIIRDGKWF | B
DNSLFLYQRAR | A
STKSTQDSSSDFIAVCGKRE | B
HYIFIRECYCIYLSIAFSQT | B
RCMMPYGESKSGVLMGRYSY | B
MSMYYISSCIISLSQVGMYV | C
VLDGNKLQSRSLSCSSWYLS | C
FCNRFRCSGSVRWLREVEYM | B
LIRMHTICVWDSSVIMSIMA | B
VRHTQHRSSL | A
CASWTCAEKAEHTMYMEDYP | B
SKSTYSLIGLGTFISRFNGN | C
FCRFQDR | A
PGPRVNHTRCVM | C
YHGVTLVSLLRYKLW | C
YVMAVI | C
ACTGARCVRDQ | B
QMGIMFALILQMYFSKFQDW | B
MDCWENVIRQKASSSGWLEN | A
YIVTTLQYDRSLASKVDEGT | A
